biological target: Amine oxidase [flavin-containing] A (Homo sapiens); assay: Inhibition of human recombinant MAO-A using kynuramine as substrate by incubated for 75 mins by spectrophotometric analysis
Sequence (P21397 whole entry): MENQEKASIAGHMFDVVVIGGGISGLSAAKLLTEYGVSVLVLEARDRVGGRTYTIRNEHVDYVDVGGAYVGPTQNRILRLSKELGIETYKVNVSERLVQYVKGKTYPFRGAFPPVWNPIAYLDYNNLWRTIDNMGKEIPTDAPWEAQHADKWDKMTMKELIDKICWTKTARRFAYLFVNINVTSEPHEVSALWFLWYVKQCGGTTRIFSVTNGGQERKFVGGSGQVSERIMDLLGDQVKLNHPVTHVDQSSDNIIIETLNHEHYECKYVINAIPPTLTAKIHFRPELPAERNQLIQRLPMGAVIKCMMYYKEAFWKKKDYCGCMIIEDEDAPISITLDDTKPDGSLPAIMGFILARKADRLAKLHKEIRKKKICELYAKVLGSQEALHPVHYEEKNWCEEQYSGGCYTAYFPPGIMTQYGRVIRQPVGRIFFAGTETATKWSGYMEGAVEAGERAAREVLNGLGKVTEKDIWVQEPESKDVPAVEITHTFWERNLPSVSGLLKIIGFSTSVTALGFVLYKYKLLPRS
pIC50: −log10 of the molar value.
QUANTITY: pIC50

- CHEMICAL_STRING: "COc1cccc(COc2ccc(C(C)=O)c(OCc3cn(CCc4c[nH]c5ccccc45)nn3)c2)c1"
  QUANTITY: "pIC50"
  REPORTED_MEASUREMENT: 4.13
- CHEMICAL_STRING: "[O-]/[N+](=C\\c1ccc2cccc(O)c2n1)Cc1ccccc1"
  QUANTITY: "pIC50"
  REPORTED_MEASUREMENT: "< 4.00"
- CHEMICAL_STRING: "O=C(/C=C/c1ccccc1Cl)c1cc2ccccc2oc1=O"
  QUANTITY: "pIC50"
  REPORTED_MEASUREMENT: "< 4.40"

Just for reference, ChEMBL document CHEMBL5579820 is where these values come from.
